Consider the following binders; for each one, report its IC50.
- measuredOn: HIV-1 YU-2 gp120 (HIV-1 (YU-2), UniProt P35961)
- assayProtocol: SPR
# unit: nM | format: bare number

(Q) Fill in the blank: the reported IC50 of Fab m18 T57A (HCDR2) (Fab, V domains shown) VH: VQLLESGPGVVKPSETLSLTCTVSGASVNNYYWTWVRQPPGKGLEWIGNVYDSGDANYNPSLSSRLSLSMDTSKNQFSLRLSSVTAADTATYYCARYHRHFIRGPLSFDYWGRGTLVTVSS VL: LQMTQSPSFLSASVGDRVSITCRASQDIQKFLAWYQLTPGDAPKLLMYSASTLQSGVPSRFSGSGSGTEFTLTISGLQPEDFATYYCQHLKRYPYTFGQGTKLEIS is ____.
(A) 16.8

(Q) Fill in the blank: the reported IC50 of Fab m18 (wild type) (Fab, V domains shown) VH: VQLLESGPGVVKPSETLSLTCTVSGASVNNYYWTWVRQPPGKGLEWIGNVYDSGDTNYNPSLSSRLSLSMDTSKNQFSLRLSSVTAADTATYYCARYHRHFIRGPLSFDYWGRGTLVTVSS VL: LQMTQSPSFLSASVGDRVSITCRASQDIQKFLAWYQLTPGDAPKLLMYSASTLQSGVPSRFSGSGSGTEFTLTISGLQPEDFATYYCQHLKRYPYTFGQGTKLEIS is ____.
(A) 33
